# test name: Half life in Wistar rat at 1 mg/kg, iv or 10 mg/kg, po
# Format: ADME, organism-based
# reported conditions: in vivo
readout type: half-life (min)

Check out these entries, answers already filled in.
molecular string: CCOC(=O)N1CCN(C(=O)[C@H](CCC(=O)O)NC(=O)c2cc([C@@H]3C[C@H]3COC)nc(-c3ccccc3)n2)CC1
unit of measure: min
half-life: 33
--
molecular string: CCOC(=O)N1CCN(C(=O)[C@H](CCC(=O)O)NC(=O)c2cc(N3CC[C@H](OC)C3)nc(-c3ccccc3)n2)CC1
unit of measure: min
half-life: 37.8

A. CCCCOC(=O)N1CCN(C(=O)[C@H](CCC(=O)O)NC(=O)c2cc([C@H]3C[C@@H]3COC)nc(-c3ccccc3)n2)CC1
B. CCOC(=O)N1CCN(C(=O)[C@H](CCC(=O)O)NC(=O)c2cc(N3CCN(C)CC3)nc(-c3ccccc3)n2)CC1
C. CCCCOC(=O)N1CCN(C(=O)[C@H](CCC(=O)O)NC(=O)c2cc(N3CC[C@H](OC)C3)nc(-c3ccccc3)n2)CC1
Prompt: Write the entries in order, lowest recorded half-life first. Answer by listing the labels in the order asked for.
Response: B, C, A
(B: 18 min, C: 72 min, A: 120 min)

----------
# Tested on: Liver microsome
# test name: Metabolic stability assay in rat liver microsomes assessed as parent drug disappearance at 1 uM after 20 mins by HPLC and mass spectrometry method
# Assay type: ADME
readout type: Stability

Check out these entries, answers already filled in.
compound: CCOC(=O)N1CCN(C(=O)[C@H](CCC(=O)O)NC(=O)c2cc(-n3cc(C)cn3)nc(-c3ccccc3)n2)CC1
system: Liver microsome
Stability: Stable
//
compound: CCOC(=O)N1CCN(C(=O)[C@H](CCC(=O)O)NC(=O)c2cc(N3CC[C@H](OC)C3)nc(-c3ccccc3)n2)CC1
system: Liver microsome
Stability: Stable
//
compound: CCOC(=O)N1CCN(C(=O)[C@H](CCC(=O)O)NC(=O)c2cc(N3CCC(N)C3)nc(-c3ccccc3)n2)CC1 (stereo not given in full)
system: Liver microsome
Stability: Stable
//
compound: CCOC(=O)N1CCN(C(=O)[C@H](CCC(=O)O)NC(=O)c2cc(C(C)(C)O)nc(-c3ccccc3)n2)CC1
system: Liver microsome
Stability: Stable
//
compound: CCOC(=O)N1CCN(C(=O)[C@H](CCC(=O)O)NC(=O)c2cc(NCCN3CCOCC3)nc(-c3ccccc3)n2)CC1
system: Liver microsome
Stability: Stable
//
compound: CCOC(=O)N1CCN(C(=O)[C@H](CCC(=O)O)NC(=O)c2cc(CN3CCCCC3)nc(-c3ccccc3)n2)CC1
system: Liver microsome
Stability: Stable

Prompt: Input CCOC(=O)N1CCN(C(=O)[C@H](CCC(=O)O)NC(=O)c2cc(-c3ccncc3)nc(-c3ccccc3)n2)CC1 , output reported Stability.
Response: Stable

Prompt: Input CCOC(=O)N1CCN(C(=O)[C@H](CCC(=O)O)NC(=O)c2cc(-c3ccc[n+]([O-])c3)nc(-c3ccccc3)n2)CC1 , output reported Stability.
Response: Stable

Prompt: Input CCOC(=O)N1CCN(C(=O)[C@H](CCC(=O)O)NC(=O)c2cc([C@H]3C[C@@H]3CO)nc(-c3ccccc3)n2)CC1 (racemic) , output reported Stability.
Response: Stable

Prompt: Input CCOC(=O)N1CCN(C(=O)[C@H](CCC(=O)O)NC(=O)c2cc(-c3cn[nH]c3)nc(-c3ccccc3)n2)CC1 , output reported Stability.
Response: Stable

Prompt: Input CCOC(=O)N1CCN(C(=O)[C@H](CCC(=O)O)NC(=O)c2cc(CN3CCOCC3)nc(-c3ccccc3)n2)CC1 , output reported Stability.
Response: Stable

Prompt: Input CCCNc1cc(C(=O)N[C@@H](CCC(=O)O)C(=O)N2CCN(C(=O)OCC)CC2)nc(-c2ccccc2)n1 , output reported Stability.
Response: Stable

Prompt: Input CCOC(=O)N1CCN(C(=O)[C@H](CCC(=O)O)NC(=O)c2cc(N3CCN(C)CC3)nc(-c3ccccc3)n2)CC1 , output reported Stability.
Response: Stable

Prompt: Input CCOC(=O)N1CCN(C(=O)[C@H](CCC(=O)O)NC(=O)c2cc(N3CC[C@H](O)C3)nc(-c3ccccc3)n2)CC1 , output reported Stability.
Response: Stable

Prompt: Input CCOC(=O)N1CCN(C(=O)[C@H](CCC(=O)O)NC(=O)c2cc([C@H]3C[C@@H]3COC)nc(-c3ccccc3)n2)CC1 (racemic) , output reported Stability.
Response: Stable

----------
# test name: AUC in Wistar rat at 10 mg/kg, po
# Assay type: ADME, organism-based, Plasma
# Design: dose 10 mg/kg, route oral
# reported conditions: Wistar, plasma
readout type: AUC (nM·h)

molecule: CCOC(=O)N1CCN(C(=O)[C@H](CCC(=O)O)NC(=O)c2cc(N3CCN(C)CC3)nc(-c3ccccc3)n2)CC1
unit of measure: nM·h
AUC: 164

1. CCCCOC(=O)N1CCN(C(=O)[C@H](CCC(=O)O)NC(=O)c2cc(N3CC[C@H](OC)C3)nc(-c3ccccc3)n2)CC1
2. CCOC(=O)N1CCN(C(=O)[C@H](CCC(=O)O)NC(=O)c2cc(C3CCC(O)CC3)nc(-c3ccccc3)n2)CC1 (some centres not stated)
Prompt: Could you kindly indicate whether 1 or 2 has the higher AUC value? Response format: the label of the selected entry.
Response: 1

----------
# test name: Oral bioavailability in Wistar rat at 10 mg/kg
# Type: ADME, organism-based
# reported conditions: Wistar, in vivo
readout type: bioavailability (%)

A. CCCCOC(=O)N1CCN(C(=O)[C@H](CCC(=O)O)NC(=O)c2cc([C@H]3C[C@@H]3COC)nc(-c3ccccc3)n2)CC1
B. CCOC(=O)N1CCN(C(=O)[C@H](CCC(=O)O)NC(=O)c2cc([C@@H]3C[C@H]3COC)nc(-c3ccccc3)n2)CC1
Prompt: Could you kindly indicate whether A or B has the higher bioavailability value? Response format: the label of the selected entry.
Response: A

----------
# system: Cytochrome P450 3A4 (Homo sapiens, UniProt P08684)
# Sequence (P08684 whole entry): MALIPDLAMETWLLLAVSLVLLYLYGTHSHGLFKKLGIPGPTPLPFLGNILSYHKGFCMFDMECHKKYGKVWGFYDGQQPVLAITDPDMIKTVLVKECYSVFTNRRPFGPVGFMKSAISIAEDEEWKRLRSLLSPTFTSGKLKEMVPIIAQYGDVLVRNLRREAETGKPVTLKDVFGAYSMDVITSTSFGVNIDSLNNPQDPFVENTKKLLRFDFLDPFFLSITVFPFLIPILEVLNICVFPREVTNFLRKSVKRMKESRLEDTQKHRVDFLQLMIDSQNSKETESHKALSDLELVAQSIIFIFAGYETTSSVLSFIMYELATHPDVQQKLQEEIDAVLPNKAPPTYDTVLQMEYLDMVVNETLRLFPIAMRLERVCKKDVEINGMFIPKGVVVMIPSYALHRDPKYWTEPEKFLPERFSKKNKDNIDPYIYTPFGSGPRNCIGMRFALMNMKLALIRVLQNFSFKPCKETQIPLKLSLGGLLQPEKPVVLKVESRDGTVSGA
# test name: Inhibition of CYP3A4 in human liver microsomes assessed as reduction in midazolam 1'-hydroxylation
# Assay type: ADME
readout type: inhibition (INH)

molecule: CCOC(=O)N1CCN(C(=O)[C@H](CCC(=O)O)NC(=O)c2cc(C(C)(C)C)nc(-c3ccccc3)n2)CC1
test result: Not Active
--
molecule: CCOC(=O)N1CCN(C(=O)[C@H](CCC(=O)O)NC(=O)c2cc(NC(C)C)nc(-c3ccccc3)n2)CC1
test result: Not Active
--
molecule: CCOC(=O)N1CCN(C(=O)[C@H](CCC(=O)O)NC(=O)c2cc(N[C@@H]3CCOC3)nc(-c3ccccc3)n2)CC1
test result: Not Active
--
molecule: CCOC(=O)N1CCN(C(=O)[C@H](CCC(=O)O)NC(=O)c2cc(-n3cc(C)cn3)nc(-c3ccccc3)n2)CC1
test result: Not Active
--
molecule: CCOC(=O)N1CCN(C(=O)[C@H](CCC(=O)O)NC(=O)c2cc(NCCO)nc(-c3ccccc3)n2)CC1
test result: Not Active

Attention now turns to another entry.
Prompt: Input CCCNc1cc(C(=O)N[C@@H](CCC(=O)O)C(=O)N2CCN(C(=O)OCC)CC2)nc(-c2ccccc2)n1 , output reported inhibition (INH).
Response: Not Active

----------
# test name: Lipophilicity, logD of the compound
# Type: physicochemical
# reported conditions: octanol/water
readout type: logD

a. CCOC(=O)N1CCN(C(=O)[C@H](CCC(=O)O)NC(=O)c2cc([C@@H]3C[C@H]3COC)nc(-c3ccccc3)n2)CC1
b. CCCCOC(=O)N1CCN(C(=O)[C@H](CCC(=O)O)NC(=O)c2cc([C@H]3C[C@@H]3COC)nc(-c3ccccc3)n2)CC1
Prompt: Hello, I am sorting some records. Could you say if a or b has the smaller logD value? Response format: the label of the selected entry.
Response: a
(a: 0.8, b: 1.9)

----------
# system: UniProt:Q9H244
# Sequence (Q9H244 whole entry): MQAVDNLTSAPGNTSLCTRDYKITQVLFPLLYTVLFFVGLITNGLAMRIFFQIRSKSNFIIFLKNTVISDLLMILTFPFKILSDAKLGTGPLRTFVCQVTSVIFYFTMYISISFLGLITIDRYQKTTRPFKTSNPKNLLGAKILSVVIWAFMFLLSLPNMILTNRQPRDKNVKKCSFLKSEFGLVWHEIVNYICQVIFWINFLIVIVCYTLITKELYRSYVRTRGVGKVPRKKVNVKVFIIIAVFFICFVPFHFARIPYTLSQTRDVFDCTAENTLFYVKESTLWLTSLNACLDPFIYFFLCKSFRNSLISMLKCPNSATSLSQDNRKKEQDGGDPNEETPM
# test name: Displacement of [3H]-2-methyl-thio-adenosine 5'-diphosphate from human recombinant P2Y12 expressed in CHO cell membranes by scintillation counting method
readout type: IC50 (nM)

Check out these entries, answers already filled in.
compound: CCOC(=O)N1CCN(C(=O)[C@H](CCC(=O)O)NC(=O)c2cc(NC(C)CO)nc(-c3ccccc3)n2)CC1 (stereo not given in full)
system: UniProt:Q9H244
IC50 / nM: 56

compound: CCOC(=O)N1CCN(C(=O)[C@H](CCC(=O)O)NC(=O)c2cc(Nc3ccccc3)nc(-c3ccccc3)n2)CC1
system: UniProt:Q9H244
IC50 / nM: 177

compound: CCOC(=O)N1CCN(C(=O)[C@H](CCC(=O)O)NC(=O)c2cc(N3CCN(C)CC3)nc(-c3ccccc3)n2)CC1
system: UniProt:Q9H244
IC50 / nM: 46

1. CCOC(=O)N1CCN(C(=O)[C@H](CCC(=O)O)NC(=O)c2cc(NCCO)nc(-c3ccccc3)n2)CC1
2. CCOC(=O)N1CCN(C(=O)[C@H](CCC(=O)O)NC(=O)c2cc(-c3ccccc3)nc(-c3ccccc3)n2)CC1
3. CCCCOC(=O)N1CCN(C(=O)[C@H](CCC(=O)O)NC(=O)c2cc([C@H]3C[C@@H]3COC)nc(-c3ccccc3)n2)CC1 (racemic)
4. CCOC(=O)N1CCN(C(=O)[C@H](CCC(=O)O)NC(=O)c2cc(NCCN3CCOCC3)nc(-c3ccccc3)n2)CC1
5. CCOC(=O)N1CCN(C(=O)[C@H](CCC(=O)O)NC(=O)c2cc([C@@H]3C[C@H]3COC)nc(-c3ccccc3)n2)CC1
Prompt: Write the entries in order, lowest recorded IC50 first. Answer by listing the labels in the order asked for.
Response: 3, 5, 2, 1, 4
(3: 3 nM, 5: 43 nM, 2: 64 nM, 1: 169 nM, 4: 257 nM)

P. CCOC(=O)N1CCN(C(=O)[C@H](CCC(=O)O)NC(=O)c2cc(NC(=O)C3CCCCC3)nc(-c3ccccc3)n2)CC1
Q. CCOC(=O)N1CCN(C(=O)[C@H](CCC(=O)O)NC(=O)c2cc([C@H]3C[C@@H]3CO)nc(-c3ccccc3)n2)CC1 (racemic)
R. CCOC(=O)N1CCN(C(=O)[C@H](CCC(=O)O)NC(=O)c2cc(-c3ccncc3)nc(-c3ccccc3)n2)CC1
S. CCOC(=O)N1CCN(C(=O)[C@H](CCC(=O)O)NC(=O)c2cc(CN3CCOCC3)nc(-c3ccccc3)n2)CC1
T. CCOC(=O)N1CCN(C(=O)[C@H](CCC(=O)O)NC(=O)c2cc(-c3ccsc3)nc(-c3ccccc3)n2)CC1
Prompt: Arrange by IC50, high to low. Answer by listing the labels in the order asked for.
Response: S, P, R, Q, T

a. CCOC(=O)N1CCN(C(=O)[C@H](CCC(=O)O)NC(=O)c2cc(N3CCCCC3)nc(-c3ccccc3)n2)CC1
b. CCOC(=O)N1CCN(C(=O)[C@H](CCC(=O)O)NC(=O)c2cc(N3CCC(N)C3)nc(-c3ccccc3)n2)CC1 (stereo not given in full)
Prompt: Could you kindly indicate whether a or b has the higher IC50 value? Response format: the label of the selected entry.
Response: a
